- System: PIK3CD
- Test Parameters: concentration: 1 μM, replicates: in singlicate; n = 1;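 note: KINOMEscan kinase panel screen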
Record form. Attribute: %Inh. Fill in for each entry.
Answers are plain numbers, in %.

Sample answers from the record:
compound="Cc1cccc(Cn2ccn3c(=O)cc(N4CCOCC4)nc23)c1 [GSK2297542]" scale_unit=% value_reported=52
compound="Cc1nnc(-c2ccc3occ(-c4ccc(C(C)O)cc4)c3c2)o1 (stereo not shown)" scale_unit=% value_reported=0
compound=O=C(NOCC1CC1)c1ccc(F)c(F)c1Nc1ccc(I)cc1Cl scale_unit=% value_reported=0
compound="O=c1cc(N2CCOCC2)nc2n(Cc3cccc(F)c3)ccn12 [GSK2297430]" scale_unit=% value_reported=6
compound="c1ccc(-c2cc(-c3c[nH]nc3-c3ccccn3)ccn2)cc1 [GW576604]" scale_unit=% value_reported=0
compound="COC(=O)Nc1nc2cc(Oc3ccc(NC(=O)Nc4cc(F)ccc4F)cc3)ccc2[nH]1.Cl [GW701424]" scale_unit=% value_reported=0
compound=N#Cc1c(N2CCOCC2)sc(-c2ccn[nH]2)c1-c1ccc(Cl)cc1 scale_unit=% value_reported=46
compound=CSc1ccc(-c2cc3ncnc(SCC(=O)O)c3s2)cc1 scale_unit=% value_reported=8
compound="Fc1ccc(-c2ncn(CCCN3CCOCC3)c2-c2ccccn2)cc1 [SB-211742]" scale_unit=% value_reported=0
compound=CN1c2ccc(NCc3ccc(F)cc3)cc2-c2c(cnn2C)S1(=O)=O scale_unit=% value_reported=0

# per-item lookup of %Inh; items listed below
1. CN(C(=O)c1ccc(-c2cc(-c3c[nH]nc3-c3ccccn3)ccn2)cc1)C1CCOCC1 [GW810083]
2. Cl.Nc1ncnc2occ(-c3ccc(NC(=O)Nc4cc(C(F)(F)F)ccc4F)cc3)c12 [SB-707548]

Out:
[1, 27]

# per-item lookup of %Inh; items listed below
1. NCCNS(=O)(=O)c1ccc(-c2ccnc3[nH]ccc23)cc1 [GSK977617]
2. CCCCCc1nc2c(N)ncnc2n1CCCCC [SKF-97255]
3. Cl.Cl.Cl.Fc1ccc(-c2ncn(C3CCNCC3)c2-c2ccnc(Nc3ccccc3)n2)cc1 [SB-238039]
4. c1ccc(-c2n[nH]cc2-c2ccnc3ccccc23)nc1 [GW271431]

Out:
1: 0; 2: 0; 3: 0; 4: 5

----------
Record form. Attribute: %Inh. Fill in for each entry.
- Tested on: TYRO3
- Test Parameters: concentration: 1 μM, replicates: in singlicate; n = 1
One number for each entry, in %.

Sample answers from the record:
compound="O=c1cc(N2CCOCC2)nc2n(Cc3cccc(Cl)c3Cl)c(C3CC3)nn12 [GSK2358994]" reported_property=%Inh value_reported=35
compound=CN1c2ccc(NCc3ccc(F)cc3)cc2-c2c(cnn2C)S1(=O)=O reported_property=%Inh value_reported=16
compound="Cc1nnc(-c2ccc(C)c(-c3ccc(C(=O)Nc4ccc(NS(C)(=O)=O)cc4)cc3)c2)o1 [GW702865]" reported_property=%Inh value_reported=0

# per-item lookup of %Inh; items listed below
1. CCCCCc1nc2c(N)ncnc2n1CCCCC [SKF-97255]
2. O=C(NCCCN1CCOCC1)c1cccc(Nc2nccc(Nc3ccc(Oc4ccccc4)cc3)n2)c1 [GW663929]
3. Cc1nnc(-c2ccc3ncc(-c4ccc(S(C)=O)cc4)n3c2)o1 (stereo not shown)
4. NCC(NC(=O)c1cc(-c2cn[nH]c2)c(-c2ccnc3[nH]ccc23)s1)c1ccccc1.O=C(O)C(F)(F)F.O=C(O)C(F)(F)F (stereo not shown) [GSK1325775]
5. CCc1nc(-c2cccc(C)c2)c(-c2ccnc(NCc3ccccc3)c2)s1

Out:
1: 0; 2: 5; 3: 9; 4: 0; 5: 0

# per-item lookup of %Inh; items listed below
1. O=C1Cc2cc(Nc3nc(NCc4cccc(S(=O)(=O)C(F)(F)F)c4)ncc3C(F)(F)F)ccc2N1
2. CNc1ncnc2[nH]ncc12 [SKF-18355]

Out:
3
0
